Sourced from PubChem BioAssay (EPA / NIEHS)

testDetails: ATG_PXRE_CIS: Attagene CIS-FACTORIAL HepG2 Assay for human Pregnane X Receptor Element (PXRE) (AID 2282957)
runParameters: HepG2 Attagene CIS-FACTORIAL PXRE reporter, mRNA; actives raise or lower the signal
The source made the active and inactive calls. Rule for the calls: active = hit-call score of the fitted dose curve at least 0.9, where 1 is the maximum; inactive = score below 0.9.
Output constraint: value belongs to active, inactive

See these solved cases before continuing.
{"columns": ["smilesText", "labelClass"],
 "data": [
  ["CC(C)C(=O)Nc1ccc([N+](=O)[O-])c(C(F)(F)F)c1", "active"],
  ["CCCOc1ccc(S(=O)(=O)N2CCN(CC)CC2)cc1-c1nc2c(CC)n(Cc3ccccn3)nc2c(=O)[nH]1", "active"],
  ["C=CN1CCCC1=O", "inactive"]
]}

Input line: Recorded call for CCCCN1C(=O)[C@@H]([C@H](O)C2CCCCC2)NC(=O)C12CCN(Cc1ccc(Oc3ccc(C(=O)O)cc3)cc1)CC2 ?
Output line: active

Input line: Recorded call for Cc1ccc(S(=O)(=O)NC(=O)NN2CCCCCC2)cc1 ?
Output line: inactive

Input line: Recorded call for O=S1(=O)CCCO1 ?
Output line: inactive

Input line: Recorded call for CCCCCCCCN(C)C ?
Output line: inactive
